Reference source: patent US20190263905A1

# Tested System: T1, CD66c (CEACAM6) on CD66c-positive A549 non-small-cell lung cancer cells (UniProt P40199 35-320, limits assumed)
# T1 construct: whole, on cells; also called CD66c antigen; NCA-90
# T1 sequence (looked up): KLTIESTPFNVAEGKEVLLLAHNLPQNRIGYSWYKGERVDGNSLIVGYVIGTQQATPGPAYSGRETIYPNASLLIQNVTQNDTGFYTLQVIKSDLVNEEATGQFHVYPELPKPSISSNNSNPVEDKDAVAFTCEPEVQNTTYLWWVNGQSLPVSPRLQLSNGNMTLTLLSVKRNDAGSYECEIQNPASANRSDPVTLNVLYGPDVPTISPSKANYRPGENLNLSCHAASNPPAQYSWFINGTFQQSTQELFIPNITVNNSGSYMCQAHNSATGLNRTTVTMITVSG
# Experiment: flow cytometry on CD66c-positive A549 cells, FITC anti-human IgG
Assay Metric: % gated (%)
Report the figure in % without appending any unit label.

Measured % gated, recombinant humanized anti-CD66c antibody Protein ID 3004 (Vk7 + VH5) (antibody, human IgG1, V domains shown, also called #41) VH: QVQLVQSGAEVKKPGASVKISCKASGYSFTDYTMNWVRQAHGQNLEWIGLINPFHGGTVSNQRFKVKATLTVDVSTNTAYMELSRLRSDDTAVYYCVRGDPVRHYYALAYWGQGTLVTVSS VL: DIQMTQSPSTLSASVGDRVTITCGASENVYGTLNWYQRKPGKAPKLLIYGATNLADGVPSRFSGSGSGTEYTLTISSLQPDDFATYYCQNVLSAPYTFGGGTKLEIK : 71

Measured % gated, recombinant humanized anti-CD66c antibody Protein ID 3058 (Vk8 + VH11) (antibody, human IgG1, V domains shown, also called hu 3058; #86) VH: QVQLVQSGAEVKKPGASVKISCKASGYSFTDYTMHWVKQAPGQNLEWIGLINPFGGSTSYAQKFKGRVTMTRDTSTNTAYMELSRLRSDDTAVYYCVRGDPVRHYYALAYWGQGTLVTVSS VL: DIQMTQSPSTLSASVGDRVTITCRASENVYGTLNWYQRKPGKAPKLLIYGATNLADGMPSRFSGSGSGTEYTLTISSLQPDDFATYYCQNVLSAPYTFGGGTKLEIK : 72

Measured % gated, recombinant humanized anti-CD66c antibody Protein ID 3010 (Vk7 + VH7) (antibody, human IgG1, V domains shown, also called #45) VH: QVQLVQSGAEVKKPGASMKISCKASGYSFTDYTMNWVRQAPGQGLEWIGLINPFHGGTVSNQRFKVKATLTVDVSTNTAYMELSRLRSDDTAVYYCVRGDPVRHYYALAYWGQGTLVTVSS VL: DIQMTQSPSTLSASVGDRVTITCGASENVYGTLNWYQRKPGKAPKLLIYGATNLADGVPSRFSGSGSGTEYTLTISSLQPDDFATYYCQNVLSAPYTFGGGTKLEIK : 70

Measured % gated, anti-CD66c chimeric antibody 8F5 (antibody, human IgG1, V domains shown, also called chimeric 8F5 antibody; chi 8F5) VH: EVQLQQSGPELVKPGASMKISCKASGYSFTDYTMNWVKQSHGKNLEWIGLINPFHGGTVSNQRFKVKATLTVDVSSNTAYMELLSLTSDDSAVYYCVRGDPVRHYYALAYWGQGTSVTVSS VL: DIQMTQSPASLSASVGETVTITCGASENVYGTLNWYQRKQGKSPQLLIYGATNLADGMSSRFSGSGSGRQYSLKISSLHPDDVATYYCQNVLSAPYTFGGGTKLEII : 73
